In this section, each of the compounds is paired with its reported pIC50.
Test system: MIAPaCa-2 cells
measurementDescription: MTT cytotoxicity, pancreas cancer cells MIAPaCa-2
Format: cell-based, human
experimentalParameters: MTT, *: effective 72 hours after incubation
Keep it numeric: pIC50 is minus log10 of the concentration in mol/L.

Worked set:
compound	pIC50
O=C1/C(=C\c2c[nH]c3ccccc23)c2cc(OC(F)(F)F)ccc2N1Cc1cccc(Cl)c1 [4C]	5.44
O=C1/C(=C\c2c[nH]c3ccccc23)c2cc(OC(F)(F)F)ccc2N1Cc1cccc(F)c1 [2C]	5.13
O=C1/C(=C\c2c[nH]c3ccccc23)c2cccc(Cl)c2N1Cc1cccc(Cl)c1 [25C]	5.49
O=C1C(=Cc2c[nH]c3ccccc23)c2cc(Cl)ccc2N1Cc1cccc(Cl)c1 [18C]	5.81
Cc1cccc(CN2C(=O)/C(=C\c3c[nH]c4ccccc34)c3cc(F)ccc32)c1 [13C]	5.82

State the recorded pIC50 for this entry: O=C1/C(=C\c2c[nH]c3ccccc23)c2cc(OC(F)(F)F)ccc2N1Cc1ccc(F)cc1 [3C]
6.02

* * *

Tested on: HUVEC cells
measurementDescription: MTT cytotoxicity, healthy cells HUVEC
Format: cell-based, human
experimentalParameters: MTT, no * mark (incubation time not specified)
IC50 under 2 µM gets MET, anything at or over 2 µM gets NOT MET.

See these solved cases before continuing.
compound	cat
Cc1ccc2c(c1)/C(=C/c1c[nH]c3ccccc13)C(=O)N2Cc1ccc(F)cc1 [45C]	NOT MET
Cc1ccc2c(c1)/C(=C/c1c[nH]c3ccccc13)C(=O)N2Cc1cccc(F)c1	NOT MET
Cc1ccc(CN2C(=O)/C(=C\c3c[nH]c4ccccc34)c3cc(F)ccc32)cc1	MET
Cc1cccc(CN2C(=O)/C(=C\c3c[nH]c4ccccc34)c3cc(OC(F)(F)F)ccc32)c1	NOT MET
Cc1ccc(CN2C(=O)/C(=C\c3c[nH]c4ccccc34)c3cc(Cl)ccc32)cc1	NOT MET
Cc1ccc(CN2C(=O)/C(=C\c3c[nH]c4ccccc34)c3cccc(Cl)c32)cc1 [28C]	NOT MET

Please look at the following compound next.
Is the reported IC50 for "O=C1/C(=C\c2c[nH]c3ccccc23)c2cc(OC(F)(F)F)ccc2N1Cc1cccc(Cl)c1" strictly below 2 µM?
MET

* * *

System: A498 cells
measurementDescription: MTT cytotoxicity, kidney cancer cells A498
Assay type: cell-based, human
experimentalParameters: MTT, no * mark (incubation time not specified)
measuredMetric: pIC50
As a rule, pIC50 stands for the negative log10 of the concentration, concentration in M.

A selection of reference data follows.
compound	experimentalSystem	pIC50
O=C1/C(=C\c2c[nH]c3ccccc23)c2cccc(Cl)c2N1Cc1ccc(Cl)cc1 [26C]	A498 cells	5.16
O=C1/C(=C\c2c[nH]c3ccccc23)c2cc(Cl)ccc2N1Cc1ccc(Cl)cc1 [19C]	A498 cells	6.29
CCN(CC)CCNC(=O)c1c(C)[nH]c(/C=C2\C(=O)Nc3ccc(F)cc32)c1C [Sunitinib malate, reference compound]	A498 cells	5.43
O=C1/C(=C\c2c[nH]c3ccccc23)c2cc(OC(F)(F)F)ccc2N1Cc1ccccc1 [Y4]	A498 cells	5.37

May I ask what pIC50 has been recorded for O=C1/C(=C\c2c[nH]c3ccccc23)c2ccccc2N1Cc1ccccc1 [Y1] ?
5.39

Proceed to O=C1/C(=C\c2c[nH]c3ccccc23)c2cc(F)ccc2N1Cc1ccccc1 [Y5]
5.36

Similarly, Cn1cc(/C=C2\C(=O)N(Cc3ccccc3)c3ccc(Cl)cc32)c2ccccc21 [Y23] ?
6.05

# iterate: Cc1ccc(CN2C(=O)/C(=C\c3c[nH]c4ccccc34)c3ccccc32)cc1 [Y21]
5.39

Repeat with Cc1ccc2c(c1)/C(=C/c1c[nH]c3ccccc13)C(=O)N2Cc1cccc(F)c1 [Y8]
6.03

Entry to check: O=C1/C(=C\c2c[nH]c3ccccc23)c2cc(OC(F)(F)F)ccc2N1Cc1cccc(F)c1 [2C]
5.32

Again, but for O=C1/C(=C\c2c[nH]c3ccccc23)c2cc(OC(F)(F)F)ccc2N1Cc1cccc(Cl)c1 [4C]
5.52

Then this compound: O=C1/C(=C\c2c[nH]c3ccccc23)c2cc(Cl)ccc2N1Cc1ccccc1 [Y2]
5.63

What do we get for O=C1/C(=C\c2c[nH]c3ccccc23)c2cccc(Cl)c2N1Cc1cccc(Cl)c1 [25C] ?
5.54

Same question, O=C1/C(=C\c2c[nH]c3ccccc23)c2cccc(Cl)c2N1Cc1cccc(F)c1 [23C] this time
5.08
